Below is a list of entries, each paired with its recorded TGI value.
# System: HT29 colon
# PROCEDURE DETAILS: NCI tumour cell line growth inhibition, 48 h
RECORDED METRIC: TGI

LINE NOTATION: Cn1ccc(C(=O)NCCCCCNC(=O)c2ccn(C)c(=O)c2O)c(O)c1=O
RECORDED METRIC: TGI
ENDPOINT RESULT: > 100 µM
--
LINE NOTATION: CC(C)CCC/C(CBr)=C(\Cl)CCl
RECORDED METRIC: TGI
ENDPOINT RESULT: 5.97 µM
--
LINE NOTATION: Oc1cc(Cl)ccc1Cc1ccc(Cl)cc1O
RECORDED METRIC: TGI
ENDPOINT RESULT: 31.3 µM
--
LINE NOTATION: CN(c1ccccc1Cl)S(=O)(=O)c1ccccc1[N+](=O)[O-]
RECORDED METRIC: TGI
ENDPOINT RESULT: > 100 µM
--
LINE NOTATION: O=C(O)CCCNS(=O)(=O)c1ccc2ccccc2c1
RECORDED METRIC: TGI
ENDPOINT RESULT: > 100 µM

###

Below is a list of entries, each paired with its recorded TGI value.
# System: SNB-19 CNS
# PROCEDURE DETAILS: NCI tumour cell line growth inhibition, 48 h

COMPOUND: COc1cc(/C=C2\C(=O)Nc3ccccc32)cc(OC)c1OC
TGI: > 100 µM

COMPOUND: Cc1nnc2sc(N/N=C/c3ccccc3)nn12
TGI: > 100 µM

COMPOUND: Cc1cc([N+](=O)[O-])ccc1N=NC(=O)NNc1ccc([N+](=O)[O-])cc1C
TGI: 37.8 µM

COMPOUND: CN1CCC(n2[nH]c(-c3ccccc3)c(Cc3ccccc3)c2=O)CC1
TGI: > 100 µM

COMPOUND: CCCCCCN1CCN(Cc2ccc(N(CC)CC)cc2)C(=O)C1=O
TGI: > 100 µM

COMPOUND: CC1CC2(CCC1OCc1ccccc1)OCCO2 (stereo not drawn)
TGI: > 100 µM

COMPOUND: O=[N+]([O-])c1ccc(N=Nc2c(O)[nH]c3ccccc23)cc1
TGI: > 100 µM

COMPOUND: CC1(C)Cc2c(Br)c(Br)c(Br)c(OCC(O)CN3CCOCC3)c2O1 (stereo not drawn)
TGI: 26.4 µM

COMPOUND: O=C(O)c1ccc(Nc2nc3ccccc3nc2C(=O)O)cc1
TGI: > 100 µM

COMPOUND: CC(=O)NC1=C(C)C(=O)c2c(nc3n2CC[C@H]3OC(C)=O)C1=O
TGI: 10.8 µM

COMPOUND: CN(C)CCNC(=O)c1nc([N+](=O)[O-])cn1C
TGI: > 100 µM

COMPOUND: O=C(c1ccccc1)N1C(=S)N(c2ccc([N+](=O)[O-])cc2)C(=Nc2ccccc2)C1=Nc1ccccc1
TGI: > 100 µM

COMPOUND: COC(=O)c1cccc(C(=O)OC)c1
TGI: > 100 µM

COMPOUND: CS(=O)(=O)O.[Ag]
TGI: 78.7 µM

COMPOUND: COc1ccc2c(c1)[C@@]1(C)CCC3c4ccc(O)cc4CCC3C1C2 (stereo partly drawn)
TGI: 30.7 µM

COMPOUND: COc1ccc2c(c1)CC[C@@H]1[C@@H]2CC[C@]2(C)C(=O)/C(=C/c3cc(OC)c(OC)c(OC)c3)C[C@@H]12
TGI: > 100 µM

COMPOUND: NC1=C(Cl)C(=O)c2ccccc2C1=O
TGI: 24.2 µM

COMPOUND: Nc1ccc(-n2c(=O)oc3ccc(Cl)cc3c2=O)c(Cl)c1
TGI: > 100 µM

COMPOUND: COc1cc(-c2nc3nc(N4CCN(C)CC4)ccc3[nH]2)c(OC)c2[nH]c(COC(C)=O)nc12
TGI: > 100 µM

COMPOUND: COc1ccc(C2=C(c3cc(OC)c(OC)c(OC)c3)C(=O)OC2)cc1OC
TGI: > 100 µM

COMPOUND: COc1cc2c3c(n(CCCNCCNCCCN)c(=O)c2cc1OC)-c1cc2c(cc1C3=O)OCO2
TGI: 31.2 µM

COMPOUND: COC(=O)[C@@H]1CCCN1C(=O)[C@H]1CCCN1C(=O)[C@@H](Cc1c[nH]c2ccccc12)NC(=S)Nc1cc(C(F)(F)F)cc(C(F)(F)F)c1
TGI: 14.4 µM

COMPOUND: COc1ccc(C(=O)CC(c2ccc(OC)c(OC)c2)c2c(O)c3ccccc3oc2=O)cc1OC (stereo not drawn)
TGI: > 100 µM

COMPOUND: COc1nc2[nH]ccc2c(=O)n1C
TGI: > 100 µM

COMPOUND: COc1ccccc1NC(=O)CC(=O)NNCC(=O)Nc1nnc(-c2ccccc2)o1
TGI: > 100 µM

COMPOUND: CCOC(=O)C(=O)Nc1ccc(Cl)c(C(F)(F)F)c1
TGI: > 100 µM

COMPOUND: CN(CCN(C)C(=O)CCOS(C)(=O)=O)C(=O)CCOS(C)(=O)=O
TGI: > 100 µM

COMPOUND: CC(C)CCC/C(CBr)=C(\Cl)CCl
TGI: 28.6 µM

COMPOUND: COc1ccc(-c2cc(-c3nnc(SCC(=O)Nc4ccc(C(C)=O)cc4)o3)c3ccccc3n2)cc1
TGI: > 100 µM

COMPOUND: C/C=C\C(CC(=O)NCCC1CN(C(=O)c2ccccc2)c2ccccc21)CC(=O)OC (stereo not drawn)
TGI: > 100 µM

COMPOUND: COc1ccc2c(c1)CCCC1C3=NCCC3(C)CSC21 (stereo not drawn)
TGI: > 100 µM

COMPOUND: C=CCN(CC=C)CC(C(C)=O)C(c1ccccc1)c1c(O)c2ccccc2oc1=O (stereo not drawn)
TGI: > 100 µM

COMPOUND: CCCCCCOc1ccc(NC2=C(Cl)C(=O)c3ncccc3C2=O)cc1
TGI: 4.51 µM

COMPOUND: NC(=O)c1c2c(cc3c(=O)c4ccccc4[nH]c13)CCCC2
TGI: > 100 µM

COMPOUND: COC(=O)C1=Cc2c(cc(OC)c(OC)c2OC)[C@H](c2ccc(OC)c(OC)c2OC)C1C(=O)OC (stereo partly drawn)
TGI: > 100 µM

COMPOUND: Cc1cc(C)c2c(N)c3cccc(C)c3nc2n1
TGI: 8.73 µM

COMPOUND: COc1ccc(-c2ccccc2)cc1-c1c(Nc2cc(Cl)cc(Cl)c2O)c(=O)c1=O
TGI: > 50 µM

COMPOUND: CCOC(=O)N(C)C1(c2ccccc2)CCN(CCCC(=O)c2ccc(F)cc2)CC1
TGI: 0.835 µM

COMPOUND: CC1CCC2(CC1)N=C1CCC(C)CC1C1(CCC(C)CC1)N2 (stereo not drawn)
TGI: > 100 µM

COMPOUND: COc1cc(C(SCc2ccccc2)SCc2ccccc2)ccc1O
TGI: > 10 µM

COMPOUND: CN1C(=O)C(c2c[nH]c3ccccc23)=C(c2c(-c3c[nH]c4ccccc34)[nH]c3ccccc23)C1=O
TGI: 18.8 µM

COMPOUND: CC(C)(C)OC(=O)NCC(=O)N1CCCN(C(=O)CNC(=O)OC(C)(C)C)CC1
TGI: > 100 µM

COMPOUND: Cc1cccc2c1C/C(=C\c1cccc(C)c1C(=O)O)C2=O
TGI: > 100 µM

###

Below is a list of entries, each paired with its recorded TGI value.
# Tested on: MDA-MB-435
# PROCEDURE DETAILS: NCI tumour cell line growth inhibition, 48 h

COMPOUND: Cc1c(F)c(N)c2c(=O)cc(-c3ccc(NC(=O)C(N)CCCN=C(N)N)c(F)c3)oc2c1F (centres undefined)
VALUE PREFIX: >
TGI / µM: 83.6
--
COMPOUND: Cc1ccc(Oc2nc3ccccc3cc2-c2nnc(Cn3c(COc4ccccc4)nc4ccccc43)o2)cc1
VALUE PREFIX: =
TGI / µM: 11.9
--
COMPOUND: CC(C)CCC[C@@H](C)[C@H]1CCC2C3=CCC4C(=O)C=CC(=O)C4C3CC[C@@]21C (some centres undefined)
VALUE PREFIX: =
TGI / µM: 1.15
--
COMPOUND: O=C1C[C@H](c2ccccc2)C2(C(=O)c3ccccc3C2=O)[C@H](c2ccccc2)C1
VALUE PREFIX: >
TGI / µM: 100

###

# System: SNB-19 CNS
# PROCEDURE DETAILS: NCI tumour cell line growth inhibition, 48 h

COMPOUND: C#CCOC(=O)C(N)CCCN=C(N)N (configuration not stated)
TGI: > 100 µM

COMPOUND: O=C(CCCn1ccnc1[N+](=O)[O-])NCCn1ccnc1[N+](=O)[O-]
TGI: > 100 µM

COMPOUND: O=C(/C=C\c1ccc2ccccc2n1)c1cc(Cl)ccc1O
TGI: 24.5 µM

COMPOUND: Cc1ccc2nc(N/N=C/c3cccc(C)n3)cc(C)c2c1
TGI: 44.8 µM

COMPOUND: CC1=CC2CC(C)C1(C)CCc1ccoc12 (configuration not stated)
TGI: > 100 µM

COMPOUND: N/C(=N\c1nc2ccccc2s1)NC(=O)Nc1cccc2ccccc12
TGI: > 81.2 µM

COMPOUND: COc1cc(OC)cc(-c2cncn2-c2ccc(-c3nc4cc(OC)cc(OC)c4s3)cc2)c1
TGI: > 100 µM

COMPOUND: Clc1ncnc2c1ncn2CCCCCCCCCCCCn1cnc2c(Cl)ncnc21
TGI: 27.8 µM

COMPOUND: Nc1nc(SCCC/C=C/I)nc2c1ncn2C1OC(CO)C(O)C1O (configuration not stated)
TGI: > 202 µM

COMPOUND: CCC(=O)c1ccc2c(c1)N(CCCN1CCN(CCO)CC1)c1ccccc1S2
TGI: 36.1 µM

COMPOUND: COC(=O)CCN(CCC(=O)OC)C1CC1
TGI: > 100 µM

COMPOUND: CCOC(=O)c1cnc2cc3cccccc3n2c1=O
TGI: > 100 µM
